- PROTOCOL_DETAILS: Edaravone solubility, slurry/shake-flask method with spectrophotometric determination at 243 nm
- Format: physicochemical
- EXPERIMENTAL_PARAMETERS: 40 °C, aqueous with cosolvent or surfactant or cyclodextrin, thermodynamic from solid, water + ETA (ChCl:EG 1:2), x*ETA = 0.2, 313.15 K; read-out: cE solubility concentration
- Description: The first step in obtaining a calibration curve was the preparation of a stock solution of edaravone with a concentration of 2.3 mg/mL. This initial solution was successfully diluted in 10 mL volumetric flasks with methanol and the obtained solutions with decreasing concentrations were measured spectrophotometrically. […] The limits of detection (LOD) and quantification (LOQ) were calculated as 5.899∙10^−4 mg/mL and 1.770∙10^−3 mg/mL, respectively. […]
ASSAY_METRIC: solubility at 24 h (mg/mL)
Enter your answer as a number in mg/mL; do not include the unit.

*Q* Value lookup for solubility at 24 h; key = CC1=NN(c2ccccc2)C(=O)C1
*A* 382

* * *

- PROTOCOL_DETAILS: Edaravone solubility, slurry/shake-flask method with spectrophotometric determination at 243 nm
- Assay type: physicochemical
- EXPERIMENTAL_PARAMETERS: deep eutectic solvent + water binary mixture, 35 °C, aqueous with cosolvent or surfactant or cyclodextrin, thermodynamic from solid, water + ETA (ChCl:EG 1:2), x*ETA = 0.8, 308.15 K; read-out: cE solubility concentration
ASSAY_METRIC: solubility at 24 h (mg/mL)
Enter your answer as a number in mg/mL; do not include the unit.

*Q* Value lookup for solubility at 24 h; key = CC1=NN(c2ccccc2)C(=O)C1
*A* 561

* * *

- PROTOCOL_DETAILS: Edaravone solubility, slurry/shake-flask method with spectrophotometric determination at 243 nm
- Type: physicochemical
- EXPERIMENTAL_PARAMETERS: 30 °C, organic solvent or mixture, thermodynamic from solid, neat DES choline chloride + glycerol (GLE) 1:1 molar ratio, 303.15 K; read-out: cE solubility concentration
ASSAY_METRIC: solubility at 24 h (mg/mL)
Enter your answer as a number in mg/mL; do not include the unit.

*Q* Value lookup for solubility at 24 h; key = CC1=NN(c2ccccc2)C(=O)C1 [edaravone, 5-methyl-2-phenyl-4H-pyrazol-3-one]
*A* 203

* * *

- PROTOCOL_DETAILS: Edaravone solubility, slurry/shake-flask method with spectrophotometric determination at 243 nm
- Format: physicochemical
- EXPERIMENTAL_PARAMETERS: 25 °C, aqueous with cosolvent or surfactant or cyclodextrin, thermodynamic from solid, water + ETA (ChCl:EG 1:2), x*ETA = 0.5, 298.15 K; read-out: cE solubility concentration
ASSAY_METRIC: solubility at 24 h (mg/mL)
Enter your answer as a number in mg/mL; do not include the unit.

*Q* Value lookup for solubility at 24 h; key = CC1=NN(c2ccccc2)C(=O)C1
*A* 457

* * *

- PROTOCOL_DETAILS: Edaravone solubility, slurry/shake-flask method with spectrophotometric determination at 243 nm
- Type: physicochemical
- EXPERIMENTAL_PARAMETERS: deep eutectic solvent + water binary mixture, 30 °C, aqueous with cosolvent or surfactant or cyclodextrin, thermodynamic from solid, water + ETA (ChCl:EG 1:2), x*ETA = 0.6, 303.15 K; read-out: cE solubility concentration
ASSAY_METRIC: solubility at 24 h (mg/mL)
Enter your answer as a number in mg/mL; do not include the unit.

*Q* Value lookup for solubility at 24 h; key = CC1=NN(c2ccccc2)C(=O)C1
*A* 561
